All values here come from patent US20190367619A1.

# System under test: T1, human galectin-10 as coated in ELISA (soluble galectin-10; tag not given) (human, UniProt Q05315 1-142, limits assumed)
# T1 construct: also called coated galectin-10; Gal10
# T1 sequence: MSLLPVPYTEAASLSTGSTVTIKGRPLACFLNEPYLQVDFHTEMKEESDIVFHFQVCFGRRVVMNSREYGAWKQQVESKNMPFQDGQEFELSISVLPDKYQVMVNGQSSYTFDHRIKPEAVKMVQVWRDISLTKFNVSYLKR
# Measurement description: ELISA, scFv periplasmic extract on coated soluble galectin-10, anti-Myc-HRP
Quantity kind: PERI-ELISA binding (OD values) (OD)
Give just the number in OD; leave the unit off.

Recorded PERI-ELISA binding (OD values), per entry:
[
  {
    "Binder": "scFv 5E12 (periplasmic extract, Myc-tagged) (scFv, not shown: small tags and cut ends) scFv: QLQLVESGGGLVQPGGSLRLSCVASGFTFRNYPMTWVRQAPGKGPEWVSAINGGGDIPYYADSVKGRFTISRDNAKNTVYLQMDSLKPEDTAMYYCAKQKWGYDPRRTDFEFRGQGTQVTVSSGGGGSGGGGSGGGGSETVPTQSPSSVTASVGEKVTITCKSSQSVRIESNHKTYLNWYQQRPGRGPRLLIYDASSRESGIPDRFSGSGSTSDFTLTISSVQPEDAAVYYCQQAYAAPTFGQGTKLEIK",
    "Quantity unit": "OD",
    "PERI-ELISA binding (OD values)": 2.42
  },
  {
    "Binder": "scFv 2C07 (periplasmic extract, Myc-tagged) (scFv, not shown: small tags and cut ends) scFv: ELQLVESGGGLVQPGGSLRLSCAASGFTFSSYAMSWVRQAPGKGLEWVSNINSGGGSTGYADSVKGRFTISRDNAKNTLYLQMNSLKPEDMAVYYCAKYLRTYYPNAAFGMDYWGKGTLVTVSSGGGGSGGGGSGGGGSQAVLTQPSAVSVSLGQTARITCQGGNFGRYYASWYQQKPGQAPVLVIYRDSERPSGIPERFSGSSSGDTATLTISGAQAEDEADYYCQSGRSSDNAVFGGGTHLTGL",
    "Quantity unit": "OD",
    "PERI-ELISA binding (OD values)": 3.63
  },
  {
    "Binder": "scFv 6F11 (periplasmic extract, Myc-tagged) (scFv, not shown: small tags and cut ends, also called 6F011) scFv: QVQRQESGPGLVKPSQTLSVTCTVSGGSITTGPYSWSWIRQPPGKGLEWIGYIGYSGSTYYSPSLKSRTSISRDTSNNQFSLQLSSVTPEDTAVYYCARSRSSPTTFGMDYWGKGTLVTVSSGGGGSGGGGSGGGGSSSALTQPSAVSVSLGQTARITCQGGDFGRYYVAWYTQKPGQAPVLVIYQDSERPSGIPERFSGSSSGDTATLTISGAQAEDEAEYYCQSGISSDNIVFGGGTHLTVL",
    "Quantity unit": "OD",
    "PERI-ELISA binding (OD values)": 3.76
  }
]

Next:
So what's the measured PERI-ELISA binding (OD values) for this one? scFv 1A12 (periplasmic extract, Myc-tagged) (scFv, not shown: small tags and cut ends) scFv: QVQLVESGGGLVQPGGSLRVSCAASGFTFSSYYMSWVRQAPGKGLEWVSAINSGGGSTYYADSVKGRFTISRDNAKNTLYLQMNSLKSEDTAVYYCVQNGGIWSFGSWGQGTQVTVSSGGGGSGGGGSGGGGSSSALTQPSAISVSLGQTARITCQGGNFGYYYVSWYQQKPGQAPVQVIYGDSNRPSGIPERFSGSSSGGTATLTISGAQAEDEADYYCLSYESSDYPVFGGGTHLTVL
2.13
